- TEST_SYSTEM: EP3 receptor (Homo sapiens)
- Sequence (P43115 1-390): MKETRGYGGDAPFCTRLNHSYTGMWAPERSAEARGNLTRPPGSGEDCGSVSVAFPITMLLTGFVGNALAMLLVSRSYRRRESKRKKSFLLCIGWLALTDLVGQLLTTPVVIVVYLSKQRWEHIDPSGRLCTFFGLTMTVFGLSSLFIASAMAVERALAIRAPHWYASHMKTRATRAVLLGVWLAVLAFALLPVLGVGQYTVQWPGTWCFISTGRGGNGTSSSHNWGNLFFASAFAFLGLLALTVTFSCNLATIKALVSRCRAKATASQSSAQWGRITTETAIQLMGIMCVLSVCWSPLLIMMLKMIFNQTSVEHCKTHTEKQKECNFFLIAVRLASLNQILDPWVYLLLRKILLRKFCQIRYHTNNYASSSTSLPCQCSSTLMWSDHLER
- ASSAY_PROCEDURE: CHO cell cAMP assay (forskolin and sulprostone stimulated, HTRF)
- SETTINGS: CHO cells; sulprostone 700 nM (EC80) and FSK 2 μM (EC70), 37° C. for 30 minutes; read-out: CHO_cAMP IC50
PARAMETER: IC50 (µM)

Illustrative cases are given below, each with its answer.
CCS(=O)(=O)N1CCC(c2ccc(-c3ccc4ccccc4c3)[nH]c2=O)CC1
0.614
CS(=O)(=O)N1CCC(c2ccc(-c3ccc4ccccc4c3)[nH]c2=O)CC1
2.83
CCn1ncc2c(F)cc(-c3ccc(C(c4noc(=O)[nH]4)C(C)C)c(=O)[nH]3)cc21 (centres unmarked)
0.548
CC(C)C(C(=O)NCCN(C)C)c1ccc(-c2ccc3scnc3c2)[nH]c1=O (centres unmarked)
14
CC1(c2ccc(-c3ccc4ccccc4c3)[nH]c2=O)CNC(=S)N1 (centres unmarked)
0.179

[a] CCOC(=O)C(C1=CCCCC1)c1ccc(-c2ccc3ccccc3c2)[nH]c1=O (centres unmarked)
[b] CCn1ncc2c(F)cc(-c3ccc(C(CC4OC(=O)NC4=O)C(C)C)c(=O)[nH]3)cc21 (centres unmarked)
Returns: the label, a or b , whose recorded IC50 is the lower number. Reply briefly: the label of your chosen item.
b

###

- TEST_SYSTEM: EP3 receptor (Homo sapiens, UniProt P43115)
- ASSAY_PROCEDURE: CHO cell cAMP assay (forskolin and sulprostone stimulated, HTRF)
- SETTINGS: CHO cells; sulprostone 700 nM (EC80) and FSK 2 μM (EC70), 37° C. for 30 minutes; read-out: CHO_cAMP IC50
pIC50: −log10 of the molar value.
PARAMETER: pIC50

Illustrative cases are given below, each with its answer.
CC(C)C1(c2ccc(-c3ccc4cccc(F)c4c3)[nH]c2=O)C(=O)Nc2nccn21 (stereo not shown)
7.70
CCC(CC)(CC1OC(=O)NC1=O)c1ccc(-c2ccc3cccc(F)c3c2)[nH]c1=O (stereo not shown)
6.97
CCN1CCOc2ccc(-c3ccc(C(C(C)C)N4CCSCC4)c(=O)[nH]3)cc21 (stereo not shown)
6.31
CC1(c2ccc(-c3ccc4ccccc4c3)[nH]c2=O)CNC(N)=N1 (stereo not shown)
5.06

[1] CC(=C1OC(=O)NC1=O)C(c1ccc(-c2ccc3cccc(F)c3c2)[nH]c1=O)C(C)C (stereo not shown)
[2] CC(C)C(CC(=O)NS(C)(=O)=O)c1ccc(-c2ccc3ccccc3c2)[nH]c1=O (stereo not shown)
Returns: the label, 1 or 2 , whose recorded pIC50 is the lower number. Reply briefly: the label of your chosen item.
2
(2: 6.03, 1: 7.59)

Source: patent US10336701B2
